- TARGET SYSTEM: T1, human amylin-3 (a) receptor (human, UniProt P30988 25-474; O60896 24-148)
- T1 sequence (looked up) 1: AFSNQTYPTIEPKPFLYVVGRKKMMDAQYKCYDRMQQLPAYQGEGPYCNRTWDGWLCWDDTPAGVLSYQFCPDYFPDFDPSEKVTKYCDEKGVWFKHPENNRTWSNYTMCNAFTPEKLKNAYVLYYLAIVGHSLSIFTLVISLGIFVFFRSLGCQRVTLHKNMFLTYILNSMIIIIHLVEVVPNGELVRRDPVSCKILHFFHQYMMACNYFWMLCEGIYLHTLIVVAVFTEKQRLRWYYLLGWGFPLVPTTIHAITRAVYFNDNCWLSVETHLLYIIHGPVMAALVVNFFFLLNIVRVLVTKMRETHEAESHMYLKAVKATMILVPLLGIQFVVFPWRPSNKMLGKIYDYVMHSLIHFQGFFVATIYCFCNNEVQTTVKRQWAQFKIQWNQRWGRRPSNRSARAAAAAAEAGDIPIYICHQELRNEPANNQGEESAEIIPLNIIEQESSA
- T1 sequence (looked up) 2: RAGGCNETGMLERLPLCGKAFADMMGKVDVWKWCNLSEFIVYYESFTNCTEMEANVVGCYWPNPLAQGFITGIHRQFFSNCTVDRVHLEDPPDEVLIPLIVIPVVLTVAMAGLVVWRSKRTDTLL
- ASSAY INFO: cell-based or functional assay
Starred links: 1 amine or outer side, 2 acyl side, 3 side chain; linkers in the order of their positions; H or OH if unused. Non-standard residues stand in square brackets, D forms with d. Groups on a side chain read outwards from the residue. *: point of attachment. Decanoyl(10-(4-HOOC-PhO)) = O=C(O)c1ccc(OCCCCCCCCCC(=O)*)cc1; C20 diacid = O=C(O)CCCCCCCCCCCCCCCCCCC(=O)*; C18 diacid = O=C(O)CCCCCCCCCCCCCCCCC(=O)*; C16 diacid = O=C(O)CCCCCCCCCCCCCCC(=O)*; γGlu = O=C(O)[C@H](CCC(=O)[*:2])N[*:1]; AEEA = NCCOCCOCC(=O)O; Aib = CC(C)(N)C(=O)O
Hi! Could you tag entries with Human AmyR3 potency [EC50 (pM)] below 30 pM as class 1, and those at or above as class 0? Much appreciated.

Input line: Check if Human AmyR3 potency [EC50 (pM)] falls below 30 pM for Compound 0637 (peptide) peptide: H[Aib]EGTFTSDVSSYLEEQAAREFIAWLVRGRK([AEEA-AEEA-γGlu-C18 diacid])GGGGSGGGEASELSTAALGRLSAELHELATLPRTETGSGSP-NH2 .
Output line: class 1

Input line: Entry Compound 0090 (peptide) peptide: HGEGTFTSDVSSYLEEQAARK([AEEA-AEEA-γGlu-C18 diacid])FIEWLVRGK([AEEA-AEEA-γGlu-C18 diacid])GEGGEASELSTAALGRLSAELHELATLPRTETGSGSP-NH2 please
Output line: class 0

Input line: Entry Compound 0575 (peptide) peptide: H[Aib]EGTFTSDVSK([AEEA-AEEA-γGlu-C16 diacid])YLEEQAARK([AEEA-AEEA-γGlu-C16 diacid])FIAWLVRGRQEGGGGGASELSTAALGRLSAELHELATLPRTETGSGSP-NH2 please
Output line: class 1

Input line: Entry Compound 0473 (peptide) peptide: HWEGTFTSDVSSYLEEK([AEEA-AEEA-γGlu-C20 diacid])AAREFIEWLVRGRGEASELSTAALGRLSAELHELATLPRTETGSGSP-NH2 please
Output line: class 1

Input line: Entry Compound 0634 (peptide) peptide: H[Aib]EGTFTSDVSK([γGlu-γGlu-γGlu-γGlu-C16 diacid])YLEEQAARK([γGlu-γGlu-γGlu-γGlu-C16 diacid])FIAWLVRGRGEASELSTAALGRLSAELHELATLPRTETGSGSP-NH2 please
Output line: class 0

Input line: Entry Compound 0019 (peptide) peptide: H[Aib]EGTFTSDVSSYLEGQAAK([AEEA-AEEA-γGlu-C18 diacid])EFIAWLVRGRGGQEPGQEPEASELSTAALGRLSAELHELATLPRTETGSGSP-NH2 please
Output line: class 1

Input line: Entry Compound 0233 (peptide) peptide: HWEGTFTSDVSSYLEEQAAREFIEWLVRGK([AEEA-AEEA-γGlu-Decanoyl(10-(4-HOOC-PhO))])GEGGGGGASELSTAALGRLSK([AEEA-AEEA-γGlu-Decanoyl(10-(4-HOOC-PhO))])ELHELATLPRTETGSGSP-NH2 please
Output line: class 0
